SYSTEM_TESTED: Dihydrofolate reductase (Trypanosoma cruzi)
TEST: Inhibitory activity against Trypanosoma cruzi dihydrofolate reductase
PROPERTY_MEASURED: Ki (nM)
The response must be a number in nM with no trailing unit.

For the compound Nc1nc(N)c2nc(CN(CCCCCC(=O)O)c3ccc(C(=O)NC(CCC(=O)O)C(=O)O)cc3)cnc2n1 (stereo unspecified) , report Ki.
0.183
